- System under test: Aminopeptidase N (Plasmodium falciparum (isolate 3D7)) (UniProt O96935)
- Sequence (O96935 whole entry, looked up): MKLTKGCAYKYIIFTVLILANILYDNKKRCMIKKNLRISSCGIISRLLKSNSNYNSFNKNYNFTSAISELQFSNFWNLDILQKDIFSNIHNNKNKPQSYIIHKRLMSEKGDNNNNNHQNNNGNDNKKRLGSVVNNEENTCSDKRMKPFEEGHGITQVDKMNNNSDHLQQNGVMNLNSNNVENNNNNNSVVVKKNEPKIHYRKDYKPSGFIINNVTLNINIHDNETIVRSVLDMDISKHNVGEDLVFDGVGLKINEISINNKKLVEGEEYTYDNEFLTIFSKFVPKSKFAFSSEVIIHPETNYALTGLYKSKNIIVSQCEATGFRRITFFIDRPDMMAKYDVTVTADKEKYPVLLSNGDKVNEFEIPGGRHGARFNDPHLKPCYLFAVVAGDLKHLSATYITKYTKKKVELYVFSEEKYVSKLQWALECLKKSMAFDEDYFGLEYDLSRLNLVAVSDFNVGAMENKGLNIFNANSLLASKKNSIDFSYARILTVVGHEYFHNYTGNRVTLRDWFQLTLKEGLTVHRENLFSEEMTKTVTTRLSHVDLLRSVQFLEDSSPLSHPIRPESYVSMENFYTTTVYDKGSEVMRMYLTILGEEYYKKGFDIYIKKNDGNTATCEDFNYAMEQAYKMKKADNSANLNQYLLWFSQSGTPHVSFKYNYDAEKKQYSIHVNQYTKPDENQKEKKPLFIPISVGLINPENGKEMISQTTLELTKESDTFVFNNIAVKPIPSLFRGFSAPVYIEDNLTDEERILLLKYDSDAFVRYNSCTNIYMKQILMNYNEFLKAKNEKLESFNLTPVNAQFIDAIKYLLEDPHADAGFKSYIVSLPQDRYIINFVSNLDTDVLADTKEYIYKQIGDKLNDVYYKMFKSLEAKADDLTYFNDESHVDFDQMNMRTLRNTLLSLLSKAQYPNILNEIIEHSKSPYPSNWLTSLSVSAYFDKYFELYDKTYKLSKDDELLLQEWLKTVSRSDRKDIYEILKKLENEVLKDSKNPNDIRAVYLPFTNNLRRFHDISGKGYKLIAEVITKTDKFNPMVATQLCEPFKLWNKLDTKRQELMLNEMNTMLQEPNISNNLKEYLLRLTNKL
- Procedure text: malaria alanyl aminopeptidase activity blockers – biochemical, fluorogenic H-Leu-NHMec substrate, 1536-well (AID 1445);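 note: plate controls were DMSO full reaction for no effect and no enzyme background for full effect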
- Details: recombinant M1AAP, H-Leu-NHMec fluorogenic kinetic assay; at 30 µM, active compounds read high unless noted
Out of some 220,000 compounds screened, about 910 (0.41%) were called active. The sample holds actives, similar compounds and a random draw of the others, so the mix is not that of the screen. Results with a measured potency or affinity are listed apart.
Reported inhibition is given for each of the following compounds.
Observed property: inhibition (%)

[[record]]
compound = "CC(=O)N1CCN(c2ccc(Oc3nnnn3-c3ccccc3)cc2)CC1"
system_under_test = "Aminopeptidase N (Plasmodium falciparum (isolate 3D7)) (UniProt O96935)"
readout_number = 2.19

[[record]]
compound = "CC1C/C(=N/Nc2ccc([N+](=O)[O-])cc2[N+](=O)[O-])CC(C)(C)C1 (stereo unspecified)"
system_under_test = "Aminopeptidase N (Plasmodium falciparum (isolate 3D7)) (UniProt O96935)"
readout_number = -1.42

[[record]]
compound = "CCOC(=O)CN(C(=O)CNC(=O)c1ccco1)C(C(=O)NC1CCCCC1)c1cccs1 (stereo unspecified)"
system_under_test = "Aminopeptidase N (Plasmodium falciparum (isolate 3D7)) (UniProt O96935)"
readout_number = 2.4

[[record]]
compound = "CCOC(=O)c1c(NC(=O)C2CCCO2)sc(C)c1C (stereo unspecified)"
system_under_test = "Aminopeptidase N (Plasmodium falciparum (isolate 3D7)) (UniProt O96935)"
readout_number = 2.42

[[record]]
compound = "CCOC(=O)c1oc2ccccc2c1CN1CCN(C)CC1"
system_under_test = "Aminopeptidase N (Plasmodium falciparum (isolate 3D7)) (UniProt O96935)"
readout_number = 0.88

[[record]]
compound = "O=C(Nc1cccs1)Nc1ccc(Br)cc1F"
system_under_test = "Aminopeptidase N (Plasmodium falciparum (isolate 3D7)) (UniProt O96935)"
readout_number = 5.12


* * *

Reported inhibition is given for each of the following molecules.
- System under test: Aminopeptidase N (Plasmodium falciparum (isolate 3D7)) (UniProt O96935)
- Procedure text: malaria alanyl aminopeptidase activity blockers – biochemical, fluorogenic H-Leu-NHMec substrate, 1536-well (AID 1445);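 note: plate controls were DMSO full reaction for no effect and no enzyme background for full effect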
- Details: recombinant M1AAP, H-Leu-NHMec fluorogenic kinetic assay; at 30 µM, active compounds read high unless noted
Hit rate of the full screen: of about 220,000 compounds, about 910 (0.41%) were called active. The sample as a whole holds a higher share of actives than the screen did. Results with a measured potency or affinity are listed apart.
Observed property: inhibition (%)

[[record]]
molecule = "COc1ccc(N=CC2=C(O)CC(C)(C)CC2=O)cc1"
system_under_test = "Aminopeptidase N (Plasmodium falciparum (isolate 3D7)) (UniProt O96935)"
readout_number = 13.6

[[record]]
molecule = "O=C1C(C2=NC(C(=O)O)C3C(=O)N(c4ccc(Cl)cc4)C(=O)C23)=C(O)c2ccccc21 (stereo not given)"
system_under_test = "Aminopeptidase N (Plasmodium falciparum (isolate 3D7)) (UniProt O96935)"
readout_number = 25.7

[[record]]
molecule = "CCC1(CC)Cc2ccccc2C(=O)N1"
system_under_test = "Aminopeptidase N (Plasmodium falciparum (isolate 3D7)) (UniProt O96935)"
readout_number = 2.59

[[record]]
molecule = "O=C1C(C2=NC(C(=O)O)C3C(=O)N(c4ccccc4)C(=O)C23)=C(O)c2ccccc21 (stereo not given)"
system_under_test = "Aminopeptidase N (Plasmodium falciparum (isolate 3D7)) (UniProt O96935)"
readout_number = 10.7

[[record]]
molecule = "CC(=O)N1CCN(Cc2nc3cc(NC(=O)c4cccc(Br)c4)ccc3n2C)CC1"
system_under_test = "Aminopeptidase N (Plasmodium falciparum (isolate 3D7)) (UniProt O96935)"
readout_number = 4.84


* * *

- System under test: Aminopeptidase N (Plasmodium falciparum (isolate 3D7))
- Procedure text: malaria alanyl aminopeptidase activity blockers – biochemical, fluorogenic H-Leu-NHMec substrate, 1536-well (AID 1445);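 note: plate controls were DMSO full reaction for no effect and no enzyme background for full effect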
- Details: recombinant M1AAP, H-Leu-NHMec fluorogenic kinetic assay; at 30 µM, active compounds read high unless noted
Hit rate of the full screen: of about 220,000 compounds, about 910 (0.41%) were called active. The sample holds actives, similar compounds and a random draw of the others, so the mix is not that of the screen. Results with a measured potency or affinity are listed apart. Where a SMILES comes first, the peptide text is derived from it. The star is where a group is joined. Boc = CC(C)(C)OC(=O)*
Observed property: inhibition (%)

[[record]]
molecule = "CC(=C\\c1ccccc1)/C=C1/SC(=S)N(C(C(=O)O)C(C)C)C1=O (stereo unspecified)"
readout_number = 8.4

[[record]]
molecule = "COc1ccccc1-c1nn2c(C(F)(F)F)nnc2s1"
readout_number = 4.63

[[record]]
molecule = "CC(C)c1ccc(N2C=Nc3ccc(C(C)C)cc3C2)cc1"
readout_number = 0.82

[[record]]
molecule = "Cn1c(Cn2nnc(-c3ccccc3)n2)nnc1SCc1ccccc1Cl"
readout_number = 0.85

[[record]]
molecule = "Cc1cccc2cc(CN(CCN3CCOCC3)C(=O)NCc3ccccc3)c(=O)[nH]c12"
readout_number = 11.1

[[record]]
molecule = "CCCOC(=O)CSc1nc(N)c(C#N)c(-c2ccco2)c1C#N"
readout_number = 8.7

[[record]]
molecule = "CCN(CC)c1cc(C)c2cc(NC(=O)c3ccc(Br)o3)ccc2n1"
readout_number = 8.17

[[record]]
molecule = "COc1ccc(/C=C/C(=O)c2ccccc2)c(OC)c1"
readout_number = 10.2

[[record]]
molecule = "CCOc1cc(/C=C2\\SC(=Nc3ccc(F)cc3)N(c3ccc(F)cc3)C2=O)ccc1OCC(=O)O"
readout_number = 16.8

[[record]]
molecule = "CCOC(=O)C1=C(O)/C(=C/c2ccc(OCC(=O)O)c(OC)c2)SC1=Nc1ccc(OCC)cc1"
readout_number = 13.2

[[record]]
molecule = "Cc1ccc(NC(=O)c2cc(C(C)(C)C)nn2Cc2ccccc2)cc1"
readout_number = 5.05

[[record]]
molecule = "O=[N+]([O-])c1ccc(O)c(NC(=S)Nc2ccccc2)c1"
readout_number = -0.91

[[record]]
molecule = "Cc1cc(C)c2c(-n3cccc3)c(C(=O)NNS(=O)(=O)c3ccc(F)cc3)sc2n1"
readout_number = -2.28

[[record]]
molecule = "CC(C)CSC1=NSC2=NC(=O)/C(=C\\c3coc4ccccc4c3=O)C(=N)N12"
readout_number = 19.5

[[record]]
molecule = "CCSC1=NSC2=NC(=O)/C(=C\\c3coc4ccccc4c3=O)C(=N)N12"
readout_number = 19.9

[[record]]
molecule = "COc1cccc(/C=C2\\SC(=S)N(C(C(=O)O)c3ccccc3)C2=O)c1OC (stereo unspecified)"
readout_number = 18.2

[[record]]
molecule = "Cc1cc(C)c2c(-n3cccc3)c(C(=O)O)sc2n1"
readout_number = 12.2

[[record]]
molecule = "COc1ccccc1-n1c(C)cc(/C=C2/C(=N)N3C(=NC2=O)SN=C3S(C)(=O)=O)c1C"
readout_number = 17.9

[[record]]
molecule = "CC(C)CSC1=NSC2=NC(=O)/C(=C\\c3ccccc3)C(=N)N12"
readout_number = -10

[[record]]
molecule = "CC(C)CC(NC(=O)OC(C)(C)C)C(=O)NCc1ccccc1 (stereo unspecified)"
readout_number = -0.35

[[record]]
molecule = "COC(=O)C(Cc1ccccc1)NC(=O)C(CC(C)C)NC(=O)OC(C)(C)C (stereo not drawn) (Boc-Leu-Phe-OMe; configuration not given here)"
readout_number = -2.73

[[record]]
molecule = "O=C(O)c1ccc(Nc2nc(-c3cccnc3)nc3ccccc23)cc1"
readout_number = 10.8

[[record]]
molecule = "COc1ccc(N2CCN(CC(=O)Nc3nnc(-c4ccccc4)s3)CC2)cc1"
readout_number = 23.4

[[record]]
molecule = "COc1cc(/C=C2\\SC(N)=NC2=O)ccc1OCC(=O)Nc1ccc(C)cc1"
readout_number = 10

[[record]]
molecule = "COc1ccc(-c2nc(CSCC(=O)N3CCN(C)CC3)c(C)o2)cc1OC"
readout_number = 1.38

[[record]]
molecule = "C[C@H](CCC(=O)O)[C@H]1CC[C@H]2[C@@H]3C(=O)C[C@@H]4CC(=O)CC[C@]4(C)[C@H]3CC(=O)[C@]12C"
readout_number = 7.14

[[record]]
molecule = "COc1cc(CCC(=O)OCC(=O)Nc2ccccc2C(C)C)cc(OC)c1OC"
readout_number = -3.32

[[record]]
molecule = "Cc1cc(Cl)c2ccc(Cl)cc2n1"
readout_number = 0.44

[[record]]
molecule = "CC(CCC(=O)O)C1CC[C@@]2(C)C3C(=O)CC4C(C)(C)C(O)CC[C@]4(C)C3C(=O)C[C@]12C (stereo partly specified)"
readout_number = 3

[[record]]
molecule = "c1ccc(-c2ccc(CN3C[C@@H]4C(c5ccccc5)C5(c6ccccc6)CC4(C5)[C@H]3c3ccccc3)cc2)cc1 (stereo partly specified)"
readout_number = -2.33

[[record]]
molecule = "Cc1cc(/C=C2/C(=N)N3C(=NC2=O)SN=C3S(C)(=O)=O)c(C)n1-c1ccccc1F"
readout_number = 8.82

[[record]]
molecule = "COc1ccc(/C=C2\\SC(=S)N(N3CCOCC3)C2=O)c(OC)c1"
readout_number = 1.37

[[record]]
molecule = "COc1cccc(N2CCN(CC(=O)Nc3nnc(-c4ccccc4)s3)CC2)c1"
readout_number = -5.75

[[record]]
molecule = "CCN1CCN(C(=O)CSCc2nc(-c3ccc(OC)c(OC)c3)oc2C)CC1"
readout_number = 1.5

[[record]]
molecule = "COC(=O)c1c(NC(=O)COC(=O)c2ccccc2O)sc2c1CCCCC2"
readout_number = 2.42

[[record]]
molecule = "O=C(COc1ncnc2ccccc12)N1CCN(S(=O)(=O)c2ccc(Cl)cc2)CC1"
readout_number = -2.49

